test system: P388 leukemia ip, CD2F1 mice, survival T/C; experiment: NCI In Vivo Anticancer Drug Screen. Data for tumor model P388 Leukemia (intraperitoneal) in CD2F1 (CDF1) mice; details: endpoint: median survival time; dose: 50.0 mg/kg/injection; schedule: Q01DX009 (ip); vehicle: Klucel (hydroxypropylcellulose) (HPC); higher = longer survival
Toxic doses and inconclusive results are not listed.
Kindly state T/C for each of the entries shown.

# query: T/C of entry "CCCCCCC1(/C=C\c2ccccc2Cl)OCCO1" 103 % of control

# query: T/C of entry "COC(=O)c1cc(C#N)n2ccc3ccccc3c12" 105 % of control

# query: T/C of entry Cc1cc(C2(c3cc(C)c(O)c(C)c3)CC3CCC2C3)cc(C)c1O (stereo not drawn) 88 % of control

# query: T/C of entry "CCn1c2ccccc2c2ccc(N=Cc3ccc([N+](=O)[O-])cc3)cc21" 99 % of control

# query: T/C of entry "CCn1c(=O)c2[nH]c(=S)[nH]c2n(CC)c1=O" 105 % of control

# query: T/C of entry "O=c1oc2ccccc2cc1Cc1cc2ccccc2oc1=O" 103 % of control

# query: T/C of entry CC(C)(C)c1cc(C2C(C#N)C(=O)NC(=O)C2C#N)cc(C(C)(C)C)c1O (stereo not drawn) 103 % of control

# query: T/C of entry "O=[N+]([O-])C1C=Nc2ccccc2N=C1" 105 % of control

###

system: P388 leukemia ip, CD2F1 mice, survival T/C; test: NCI In Vivo Anticancer Drug Screen. Data for tumor model P388 Leukemia (intraperitoneal) in CD2F1 (CDF1) mice; conditions: endpoint: median survival time; dose: 25.0 mg/kg/injection; schedule: Q01DX005 (ip); vehicle: saline with Tween-80; higher = longer survival
Toxic doses and inconclusive results are not listed.
Kindly state T/C for each of the entries shown.

# query: T/C of entry "C/C(=C1\C(=O)Oc2c(ccc3ccccc23)C1=O)c1ccc2ccccc2c1O" 99 % of control

# query: T/C of entry "O=C1CCC(=O)N1SC(Cl)(Cl)Cl" 100 % of control

# query: T/C of entry "Cc1ccc(S(=O)(=O)Oc2ccc3sc4cccc(NCCN(C)C)c4c(=O)c3c2)cc1" 93 % of control

# query: T/C of entry CCCC1(CC(=O)OCC)SCCN1C(=O)OCC (stereo unspecified) 102 % of control

# query: T/C of entry "CCS(=O)(=O)c1ccc(N2C(N)=NC(N)=NC2(C)C)cc1" 103 % of control

# query: T/C of entry "CCN=C1C=CC(=C(c2ccc(N(CC)CC)cc2)c2ccc(N(CC)CC)cc2)c2ccccc21" 115 % of control

###

tested on: P388 leukemia ip, CD2F1 mice, survival T/C; assay: NCI In Vivo Anticancer Drug Screen. Data for tumor model P388 Leukemia (intraperitoneal) in CD2F1 (CDF1) mice; conditions: endpoint: median survival time; dose: 100.0 mg/kg/injection; schedule: Q04DX002 (ip); vehicle: Klucel (hydroxypropylcellulose) (HPC); higher = longer survival
Toxic doses and inconclusive results are not listed.
measuredAttribute: T/C

# query: T/C of entry "CSC(=S)n1nc(C)c(N=Nc2cccc(C)c2C)c1C" 96 % of control

# query: T/C of entry "C=CCc1cc(OC)c(OCC=O)c(OC)c1" 99 % of control

# query: T/C of entry C=C1C(C2=NCCN2O)OC2OC(C)(C)OC12 (centres undefined) 98 % of control

# query: T/C of entry "CC(/C=C/c1ccco1)=N\NC(=S)Nc1ccc(Br)cc1" 97 % of control

Taken from PubChem BioAssay AID330.
